- targetDesc: EP300-BRD (Homo sapiens, UniProt Q09472)
- Construct: T7 phage display fusion with DNA tag for qPCR
- Sequence (Q09472 1049-1156 limits assumed): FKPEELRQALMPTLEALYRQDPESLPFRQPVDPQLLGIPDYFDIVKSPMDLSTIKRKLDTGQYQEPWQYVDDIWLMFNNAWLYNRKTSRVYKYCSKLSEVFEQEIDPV
- protocolText: BROMOscan ligand binding site-directed competition assay, EP300
- testContext: BROMOscan
measuredProperty: Kd (nM)

# molecule, measuredProperty, relation, measuredNumber
measured = [
    ("Cc1cc2c(NC(=O)c3cc(NC(=O)CCCCCCCN4CCN(c5ccc6c(c5)C(=O)N(C5CCC(=O)NC5=O)C6=O)CC4)cc(-c4ccn(C)n4)c3)cccc2nn1 (stereo not drawn)", "Kd", "=", 45),
    ("Cc1cc2c(NC(=O)c3cc(NC(=O)CCCCCCCCCCCNc4cccc5c4C(=O)N(C4CCC(=O)NC4=O)C5=O)cc(-c4ccn(C)n4)c3)cccc2nn1 (stereo not drawn)", "Kd", ">", 10000),
    ("CC(=O)Nc1cc(C(=O)Nc2cccc3nnc(C)cc23)cc(-c2ccn(C)n2)c1", "Kd", "=", 25),
]

* * *

- targetDesc: EP300 (Homo sapiens)
- Construct: quantification of CBP and EP300 levels by Western blotting following 16 h treatment of LP1 cells; endogenous in cells; host or cells: LP1 cells
- Sequence (Q09472 whole entry): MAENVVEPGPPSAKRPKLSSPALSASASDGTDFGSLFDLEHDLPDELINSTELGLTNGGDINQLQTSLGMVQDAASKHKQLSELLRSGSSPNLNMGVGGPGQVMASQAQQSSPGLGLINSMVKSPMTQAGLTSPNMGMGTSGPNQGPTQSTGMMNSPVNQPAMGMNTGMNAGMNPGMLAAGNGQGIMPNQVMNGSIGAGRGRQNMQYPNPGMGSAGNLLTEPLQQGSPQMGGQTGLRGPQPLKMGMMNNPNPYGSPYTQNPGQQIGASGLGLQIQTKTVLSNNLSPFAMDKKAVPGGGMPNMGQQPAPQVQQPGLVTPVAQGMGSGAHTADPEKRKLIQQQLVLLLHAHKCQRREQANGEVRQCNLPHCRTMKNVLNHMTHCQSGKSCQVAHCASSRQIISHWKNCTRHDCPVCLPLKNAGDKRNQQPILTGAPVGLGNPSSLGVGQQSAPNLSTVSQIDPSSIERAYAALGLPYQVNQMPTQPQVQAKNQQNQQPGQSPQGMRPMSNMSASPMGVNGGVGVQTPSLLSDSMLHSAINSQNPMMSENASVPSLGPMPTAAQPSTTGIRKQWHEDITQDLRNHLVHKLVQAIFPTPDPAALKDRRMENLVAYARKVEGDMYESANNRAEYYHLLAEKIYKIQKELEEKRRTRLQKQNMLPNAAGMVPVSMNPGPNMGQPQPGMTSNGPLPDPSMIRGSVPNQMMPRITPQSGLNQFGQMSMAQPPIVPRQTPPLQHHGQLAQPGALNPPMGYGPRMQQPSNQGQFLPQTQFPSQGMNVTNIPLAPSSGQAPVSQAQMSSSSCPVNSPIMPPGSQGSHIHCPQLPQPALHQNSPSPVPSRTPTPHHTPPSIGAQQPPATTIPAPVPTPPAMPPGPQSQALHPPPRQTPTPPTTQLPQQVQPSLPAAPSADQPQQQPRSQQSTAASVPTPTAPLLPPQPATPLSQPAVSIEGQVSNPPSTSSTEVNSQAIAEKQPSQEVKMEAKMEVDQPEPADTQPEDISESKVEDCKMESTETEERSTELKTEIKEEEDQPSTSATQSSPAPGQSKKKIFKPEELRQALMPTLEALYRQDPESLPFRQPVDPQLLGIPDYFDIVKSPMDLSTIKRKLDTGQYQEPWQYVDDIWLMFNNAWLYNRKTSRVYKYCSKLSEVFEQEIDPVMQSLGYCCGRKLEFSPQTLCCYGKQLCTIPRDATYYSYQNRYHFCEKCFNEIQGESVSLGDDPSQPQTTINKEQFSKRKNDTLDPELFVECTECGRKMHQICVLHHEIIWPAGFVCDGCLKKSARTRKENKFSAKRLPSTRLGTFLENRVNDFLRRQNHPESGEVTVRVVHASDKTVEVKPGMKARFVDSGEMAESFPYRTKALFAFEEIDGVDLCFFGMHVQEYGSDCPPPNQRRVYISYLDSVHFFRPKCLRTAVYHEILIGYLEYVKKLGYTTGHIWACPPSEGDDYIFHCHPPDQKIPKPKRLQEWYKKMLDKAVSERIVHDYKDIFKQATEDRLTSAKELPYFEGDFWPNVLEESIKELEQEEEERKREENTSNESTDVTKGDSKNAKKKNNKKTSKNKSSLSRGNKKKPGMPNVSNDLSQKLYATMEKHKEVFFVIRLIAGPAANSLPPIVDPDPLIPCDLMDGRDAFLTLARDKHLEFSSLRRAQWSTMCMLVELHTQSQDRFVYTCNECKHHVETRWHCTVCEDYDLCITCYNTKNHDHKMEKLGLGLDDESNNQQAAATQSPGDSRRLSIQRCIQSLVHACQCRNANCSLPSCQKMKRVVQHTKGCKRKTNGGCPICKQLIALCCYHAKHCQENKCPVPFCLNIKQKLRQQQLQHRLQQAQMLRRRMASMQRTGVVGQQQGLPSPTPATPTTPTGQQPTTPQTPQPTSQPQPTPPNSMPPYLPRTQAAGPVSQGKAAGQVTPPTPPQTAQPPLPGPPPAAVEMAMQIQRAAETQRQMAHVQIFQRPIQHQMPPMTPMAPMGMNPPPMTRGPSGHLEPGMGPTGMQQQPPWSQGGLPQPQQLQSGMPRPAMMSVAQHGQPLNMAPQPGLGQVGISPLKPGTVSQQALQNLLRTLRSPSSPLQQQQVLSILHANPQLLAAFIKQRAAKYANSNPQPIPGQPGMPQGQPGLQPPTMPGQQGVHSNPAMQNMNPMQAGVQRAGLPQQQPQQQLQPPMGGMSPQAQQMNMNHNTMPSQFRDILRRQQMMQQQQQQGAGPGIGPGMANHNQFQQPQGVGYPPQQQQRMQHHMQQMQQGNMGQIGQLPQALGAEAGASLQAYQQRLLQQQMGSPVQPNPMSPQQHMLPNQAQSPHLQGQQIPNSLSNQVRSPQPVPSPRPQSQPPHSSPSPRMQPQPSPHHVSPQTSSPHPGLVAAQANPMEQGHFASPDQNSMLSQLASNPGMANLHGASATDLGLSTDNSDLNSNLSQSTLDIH
- protocolText: Quantification of EP300 degradation by Western blotting in LP1 cells
- Type: cell-based
- testContext: 5 μM compound, 16 h, Western blot

# molecule, relation, % remaining EP300 [%]
rows = [
    ("Cc1cc2c(NC(=O)c3cc(NC(=O)CCCCCCCCCCCNc4cccc5c4C(=O)N(C4CCC(=O)NC4=O)C5=O)cc(-c4ccn(C)n4)c3)cccc2nn1 (stereo not drawn) [compound 4]", "=", 43),
    ("Cc1cc2c(NC(=O)c3cc(NC(=O)CCCCCCCCNc4cccc5c4C(=O)N(C4CCC(=O)NC4=O)C5=O)cc(-c4ccn(C)n4)c3)cccc2nn1 (stereo not drawn) [compound 6]", "=", 87),
    ("Cc1cc2c(NC(=O)c3cc(NC(=O)CCCCCCCN4CCN(c5ccc6c(c5)C(=O)N(C5CCC(=O)NC5=O)C6=O)CC4)cc(-c4ccn(C)n4)c3)cccc2nn1 (stereo not drawn) [compound 9]", ">", 95),
    ("Cc1cc2c(NC(=O)c3cc(NC(=O)CCCCCCCCCCNc4cccc5c4C(=O)N(C4CCC(=O)NC4=O)C5=O)cc(-c4ccn(C)n4)c3)cccc2nn1 (stereo not drawn) [dCE-2]", "=", 43),
    ("Cc1cc2c(NC(=O)c3cc(NC(=O)CCCCCCCCCCNc4ccc5c(c4)C(=O)N(C4CCC(=O)NC4=O)C5=O)cc(-c4ccn(C)n4)c3)cccc2nn1 (stereo not drawn) [compound 7]", "=", 69),
    ("Cc1cc2c(NC(=O)c3cc(NC(=O)COCCOCCOCCNc4cccc5c4C(=O)N(C4CCC(=O)NC4=O)C5=O)cc(-c4ccn(C)n4)c3)cccc2nn1 (stereo not drawn) [compound 8]", "=", 95),
]

* * *

- targetDesc: CBP-BRD (Homo sapiens, UniProt Q92793)
- Sequence (Q92793 1081-1197): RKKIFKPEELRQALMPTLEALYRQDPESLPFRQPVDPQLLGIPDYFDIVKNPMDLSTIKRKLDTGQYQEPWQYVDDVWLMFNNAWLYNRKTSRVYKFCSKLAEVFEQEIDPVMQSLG
- protocolText: TR-FRET competition with acetylated peptide binding to CBP-BRD, with and without CRBN (cooperativity)
- Set-up: GST-CBP (human, residues 1081-1197); made in house; host or cells: Rosetta (DE3) cells (E. coli)
- testContext: absence of CRBN; read-out: CBP-BRD IC50 (binary, IC50[control])
pIC50: −log10 of the molar value.

# compound, pIC50
data = [
    ("Cc1cc2c(NC(=O)c3cc(NC(=O)CCCCCCCCCCNc4cccc5c4C(=O)N(C4CCC(=O)N(C)C4=O)C5=O)cc(-c4ccn(C)n4)c3)cccc2nn1 (centres unmarked) [compound 10]", 6.66),
    ("Cc1cc2c(NC(=O)c3cc(NC(=O)CCCCCCCCCCNc4cccc5c4C(=O)N(C4CCC(=O)NC4=O)C5=O)cc(-c4ccn(C)n4)c3)cccc2nn1 (centres unmarked) [dCE-2]", 6.82),
]
